Test protocol: chemical genetic growth profiling, strain panel (AID 1159580);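 note: tested at 20 µM; growth read once vehicle control cultures reached saturation at 30 °C; lower values mean less growth of the strain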
Test settings: S. cerevisiae deletion strains, growth OD, locus YDR335W, strain msn5
The campaign covered roughly 5,500 compounds. About 2,000 (36%) were called active. Inconclusive results (about 18%) are left out. Cut-off read from the data, not from the text of the source: active = normalized growth mostly below about 0.91 (no sharp cut-off); inconclusive = no clear call, values can overlap the other calls; inactive = mostly above about 0.92. This is one part of the list.
Outcomes: Yes (active), No (inactive)

Molecule: CC(=O)Nc1cc([As](=O)(O)O)ccc1O
Group: No
//
Molecule: CCN(CC)CCNC(=O)c1cc(S(C)(=O)=O)ccc1OC
Group: No
//
Molecule: Cc1ccsc1/C=C/C1=NCCCN1C
Group: No
//
Molecule: O=[N+]([O-])c1ccc(O)c([N+](=O)[O-])c1
Group: Yes
//
Molecule: O=[N+]([O-])c1cc(O)c(O)c([N+](=O)[O-])c1
Group: No
//
Molecule: CC(C)(C)NCC(O)c1ccccc1Cl (stereo unspecified)
Group: No

---

Test protocol: chemical genetic growth profiling, strain panel (AID 1159580);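 note: tested at 20 µM; growth read once vehicle control cultures reached saturation at 30 °C; lower values mean less growth of the strain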
Test settings: S. cerevisiae deletion strains, growth OD, locus YOL006C, strain TOP1
Out of some 5,500 compounds screened, about 2,000 (36%) were called active. Roughly 18% stayed inconclusive and do not appear here. Cut-off read from the data, not from the text of the source: active = normalized growth mostly below about 0.91 (no sharp cut-off); inconclusive = no clear call, values can overlap the other calls; inactive = mostly above about 0.92. Some of the results follow.
Labels: active, inactive

Compound: CN/C(=C\[N+](=O)[O-])NCCSCc1ccc(CN(C)C)o1
Group: inactive

Compound: COC(=O)c1ccc(-c2ccc(Cl)cc2)s1
Group: active

Compound: Oc1ccc(Cl)c2cccnc12
Group: active

Compound: COc1cc(C2N=C(c3ccc(Cl)cc3)SC(c3ccc(Cl)cc3)=N2)cc(OC)c1OC
Group: inactive

Compound: O=C(CCCCCCCCCCCCC1CCCC1)Nc1ccc(S(=O)(=O)c2ccc(NC(=O)CCCCCCCCCCCCC3CCCC3)cc2)cc1
Group: inactive

Compound: CC(C)NCC(O)c1ccc(O)c(O)c1 (configuration not stated)
Group: inactive

Compound: Nc1ccc(S(=O)(=O)Nc2ccccn2)cc1
Group: inactive

Compound: Nc1ccc(C(=O)NCC(=O)O)cc1
Group: inactive

Compound: CC1CCN(C(=O)CC#N)CC1
Group: inactive

Compound: Cc1oc(S(=O)(=O)N(C)C)cc1C(=O)O
Group: inactive

Compound: COc1ccc(-c2c(C)nc3ccc(Cl)cc3c2-c2ccccc2)cc1OC
Group: inactive

Compound: CC(C)(C)C(=O)NC(=S)Nc1cccc(C(F)(F)F)c1
Group: active

Compound: CC1(C)C(=O)C=C[C@@]2(C)C1=C(O)C(=O)[C@]1(C)C2CC[C@@]2(C)[C@H](c3ccoc3)C[C@H]3O[C@]321 (some centres not stated)
Group: inactive

Compound: Nc1ccc(S(=O)(=O)Nc2ccc(Cl)nn2)cc1
Group: inactive

Compound: COC(=O)c1cc(OC)c(OC)cc1-n1c(C)ccc1C
Group: inactive

Compound: Cc1occc(=O)c1/C=C/O
Group: inactive

Compound: O=[N+]([O-])c1ccc(SC2=NCCN2)c(Cl)c1
Group: inactive

Compound: CCN(CC)CCOc1ccc(/C(=C(\Cl)c2ccccc2)c2ccccc2)cc1
Group: active

Compound: C=C(C)[C@H]1CC=C(C(=O)O)CC1
Group: inactive

Compound: CC(=O)O[C@H]1C[C@@H](OC(C)=O)C(C)(C)C2C[C@@H](OC(C)=O)[C@@]3(C)C4=CC(=O)O[C@@H](c5ccoc5)[C@]4(C)CCC3[C@]21C (some centres not stated)
Group: inactive

Compound: C/C=C/c1ccc2c(c1)OCO2
Group: inactive

Compound: Cc1onc(NC(=O)NC(=O)c2c(F)cccc2Cl)c1Br
Group: inactive

Compound: CO[C@H]1/C=C/O[C@@]2(C)Oc3c(C)c(O)c4c(O)c(c(/C=N/N5CCN(C)CC5)c(O)c4c3C2=O)NC(=O)/C(C)=C\C=C\C(C)[C@H](O)[C@@H](C)[C@@H](O)[C@@H](C)[C@@H](OC(C)=O)[C@@H]1C (some centres not stated)
Group: inactive

Compound: O=C(NNC(=S)Nc1ccc(F)cc1)c1ccccc1Cl
Group: active

Compound: O=C(NC(=S)Nc1ccccn1)c1ccccc1
Group: active

Compound: Oc1c(Br)cc(Br)c2cccnc12
Group: active

Compound: CCOc1ccc(/C=C(\C)[N+](=O)[O-])cc1OC
Group: active

Compound: O=C(Nc1ccccc1F)C(Cl)Cl
Group: inactive

Compound: Nc1ccccc1SCC(=O)Nc1c(F)cccc1F
Group: inactive

Compound: OC[C@@H]1CCCN2CCCC[C@H]12
Group: inactive

Compound: O=C1O[C@H](C(O)CO)C(O)=C1O (some centres not stated)
Group: inactive

Compound: O=[N+]([O-])c1ccc2nsnc2c1
Group: active

Compound: Nc1ncnc2c1ncn2[C@@H]1O[C@H](CO)[C@@H](O)[C@H]1O
Group: inactive

Compound: CC(=O)N/C(=C/c1ccc2c(c1)OCO2)C(=O)O
Group: inactive

Compound: CCC(Cc1c(I)cc(I)c(N)c1I)C(=O)O (configuration not stated)
Group: inactive

Compound: CCn1nc(C)c(Br)c1-c1nc(-c2ccc(C(F)(F)F)cc2)no1
Group: inactive

Compound: C=C[C@](C)(O)CCC=C(C)C
Group: inactive

Compound: NCCNC(=O)c1ccc(Cl)cc1
Group: inactive

Compound: O=[N+]([O-])c1ccc(O)c([N+](=O)[O-])c1
Group: inactive

Compound: CN[C@H](CC(=O)O)C(=O)O
Group: inactive

Compound: CCN(CC)CCOc1ccc2c(c1)C(=O)c1cc(OCCN(CC)CC)ccc1-2
Group: inactive

Compound: O=C(OC1Cc2c(O)cc(O)cc2OC1c1cc(O)c(O)c(O)c1-c1c(C2Oc3cc(O)cc(O)c3CC2OC(=O)c2cc(O)c(O)c(O)c2)cc(O)c(O)c1O)c1cc(O)c(O)c(O)c1 (configuration not stated)
Group: inactive

Compound: Oc1c(Cl)cc(Cl)c2cccnc12
Group: active

Compound: C=CC(C)(O)CC/C=C(\C)CCC=C(C)C (configuration not stated)
Group: inactive

Compound: COc1ccc(CCNC(=S)Nc2cccc(C(F)(F)F)c2)cc1OC
Group: inactive

Compound: CC(C)(C)NC[C@@H](O)COc1nsnc1N1CCOCC1
Group: inactive

Compound: C1CCN2CC3CC(CN4CCCCC34)C2C1 (configuration not stated)
Group: inactive
